Molecular target: Bcl-xL, Q07817
Sequence (Q07817 1-209): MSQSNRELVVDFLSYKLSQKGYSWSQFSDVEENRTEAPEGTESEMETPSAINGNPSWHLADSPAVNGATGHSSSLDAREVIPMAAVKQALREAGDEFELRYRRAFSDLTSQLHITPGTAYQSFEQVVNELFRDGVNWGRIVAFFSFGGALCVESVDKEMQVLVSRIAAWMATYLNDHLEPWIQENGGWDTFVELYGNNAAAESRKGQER
Assay: peptide SPOT array, c-Myc-tagged receptor at 1 uM or 100 nM, anti-c-Myc-Cy3
Classify by measured SPOT signal as a fraction of Bim BH3's signal on the same receptor and array: Yes if it is equal to or exceeds 0.2, No if it is smaller.

Decide: is the reported value of SPOT signal as a fraction of Bim BH3's signal on the same receptor and array for RAKASSLSEEDKHFADGLETDGTLQK [DSN1] equal to or greater than 0.2? No

Decide: is the reported value of SPOT signal as a fraction of Bim BH3's signal on the same receptor and array for PVESSWIAPEDRLQSDDILPLGKDSG [DHX30] equal to or greater than 0.2? No

Decide: is the reported value of SPOT signal as a fraction of Bim BH3's signal on the same receptor and array for RCELQICGLAMADALEYLCVCGQERT [OBSCN] equal to or greater than 0.2? No

Decide: is the reported value of SPOT signal as a fraction of Bim BH3's signal on the same receptor and array for AIILCNVCGNLCTDCDRFLHLHRRTK [MYCBP2] equal to or greater than 0.2? Yes

Decide: is the reported value of SPOT signal as a fraction of Bim BH3's signal on the same receptor and array for LHQAKDFGNYLFNFASAATKKITESV [SYAP1] equal to or greater than 0.2? Yes

Decide: is the reported value of SPOT signal as a fraction of Bim BH3's signal on the same receptor and array for RQAFYLHTTKLTRIARRLCREILRPW [MTA1] equal to or greater than 0.2? Yes

Decide: is the reported value of SPOT signal as a fraction of Bim BH3's signal on the same receptor and array for EKVLIFGGDIDKFAGDALLALWRVER [ADCY10] equal to or greater than 0.2? No
